Each entry below lists one item and its recorded phosphorylation enrichment value.
experimentalSystem: Hck (UniProt P08631)
Sequence (P08631 whole entry, looked up): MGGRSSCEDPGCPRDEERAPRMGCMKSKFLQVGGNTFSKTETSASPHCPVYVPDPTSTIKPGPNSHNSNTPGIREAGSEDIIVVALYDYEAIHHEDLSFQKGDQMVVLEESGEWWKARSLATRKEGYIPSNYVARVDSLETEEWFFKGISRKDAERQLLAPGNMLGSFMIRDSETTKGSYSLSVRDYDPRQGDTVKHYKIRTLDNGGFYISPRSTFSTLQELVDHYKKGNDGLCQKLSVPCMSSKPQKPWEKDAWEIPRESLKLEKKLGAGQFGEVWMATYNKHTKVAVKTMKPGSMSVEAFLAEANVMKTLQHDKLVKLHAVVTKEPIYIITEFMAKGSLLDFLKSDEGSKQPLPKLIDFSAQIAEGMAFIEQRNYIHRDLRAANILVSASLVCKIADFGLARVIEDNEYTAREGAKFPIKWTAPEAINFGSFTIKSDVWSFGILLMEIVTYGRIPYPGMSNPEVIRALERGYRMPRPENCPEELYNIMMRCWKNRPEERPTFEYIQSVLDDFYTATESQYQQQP
procedureDetails: phosphorylation enrichment, bacterial display (enrichment ratio); higher = better substrate or ligand; peptides without Tyr show the background
Lab note: record the figure alone, no unit after it.

1) LLIMEYAKYGS [RET_Y806_V804M]: 0.64
2) ETEMLYGSARR [PRC1_Y464_P468R]: 4.55
3) ACCLLYRGDVV [TUBA4A_Y319]: 0.645
4) ESAAIYNPVIY [RHO_Y301_K296E]: 9.21

-- ask Dear colleague, I am looking for the recorded phosphorylation enrichment of the following sequence: LSALDYKIFYY [WDPCP_Y210]
-- reply 0.499

-- ask Dear colleague, I am looking for the recorded phosphorylation enrichment of the following sequence: ITVCDYTNPCP [MYD88_Y276_T281P]
-- reply 0.354

-- ask Dear colleague, I am looking for the recorded phosphorylation enrichment of the following sequence: KANEFYPVVLI [ADAMTS18_Y765_YF]
-- reply 0.412

-- ask Dear colleague, I am looking for the recorded phosphorylation enrichment of the following sequence: TIMTDYNPNFC [ALK_Y1092_YF]
-- reply 0.47

-- ask Dear colleague, I am looking for the recorded phosphorylation enrichment of the following sequence: RHFTGCRIELQ [INSR_Y818_Y818C]
-- reply 0.613

-- ask Dear colleague, I am looking for the recorded phosphorylation enrichment of the following sequence: FKPENYRRLDI [VHL_Y175_V170F]
-- reply 0.383

-- ask Dear colleague, I am looking for the recorded phosphorylation enrichment of the following sequence: GFCSWYRGWAP [TIMP3_Y195_YF]
-- reply 0.497

-- ask Dear colleague, I am looking for the recorded phosphorylation enrichment of the following sequence: KLSFSYGQALQ [ALDOB_Y302_R304Q]
-- reply 0.383

-- ask Dear colleague, I am looking for the recorded phosphorylation enrichment of the following sequence: DFGSGYPNDPK [RNASEH2A_Y210_YF]
-- reply 0.423

-- ask Dear colleague, I am looking for the recorded phosphorylation enrichment of the following sequence: LSVISYDLGMF [GBA3_Y174_M172I]
-- reply 0.481

----------
experimentalSystem: MERTK (UniProt Q12866)
Sequence (Q12866 whole entry, looked up): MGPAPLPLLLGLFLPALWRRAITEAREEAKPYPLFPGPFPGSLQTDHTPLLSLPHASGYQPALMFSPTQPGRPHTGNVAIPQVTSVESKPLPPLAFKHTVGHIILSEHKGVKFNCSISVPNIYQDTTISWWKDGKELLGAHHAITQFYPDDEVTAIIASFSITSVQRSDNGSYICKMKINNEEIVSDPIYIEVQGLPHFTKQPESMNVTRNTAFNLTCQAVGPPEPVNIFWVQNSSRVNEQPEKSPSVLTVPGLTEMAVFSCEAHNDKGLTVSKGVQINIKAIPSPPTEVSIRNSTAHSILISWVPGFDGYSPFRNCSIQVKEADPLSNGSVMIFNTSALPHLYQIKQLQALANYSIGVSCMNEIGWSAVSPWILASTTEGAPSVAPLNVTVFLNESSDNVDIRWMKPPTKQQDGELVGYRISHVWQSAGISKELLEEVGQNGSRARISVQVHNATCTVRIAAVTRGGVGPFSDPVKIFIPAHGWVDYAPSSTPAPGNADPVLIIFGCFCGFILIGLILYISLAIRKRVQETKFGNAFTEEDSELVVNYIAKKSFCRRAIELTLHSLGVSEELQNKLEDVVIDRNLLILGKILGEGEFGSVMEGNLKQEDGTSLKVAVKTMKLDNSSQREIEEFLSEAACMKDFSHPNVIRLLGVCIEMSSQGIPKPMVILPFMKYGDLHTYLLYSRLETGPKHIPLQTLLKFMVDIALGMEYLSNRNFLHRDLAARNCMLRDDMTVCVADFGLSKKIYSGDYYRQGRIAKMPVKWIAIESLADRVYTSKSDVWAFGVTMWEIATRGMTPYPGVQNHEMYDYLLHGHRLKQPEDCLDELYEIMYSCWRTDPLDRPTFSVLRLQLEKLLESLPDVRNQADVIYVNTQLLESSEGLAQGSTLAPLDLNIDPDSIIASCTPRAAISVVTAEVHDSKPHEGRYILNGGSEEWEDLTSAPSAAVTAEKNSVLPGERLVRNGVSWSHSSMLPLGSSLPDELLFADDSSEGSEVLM
procedureDetails: phosphorylation enrichment, bacterial display (enrichment ratio); higher = better substrate or ligand; peptides without Tyr show the background
Each entry below lists one item and its recorded phosphorylation enrichment value.

Worked set:
1. ALADKYHGGGG [HBB_Y146_H144D]: 0.322
2. GCRSKYVGLWR [KCNQ1_Y184_G189R]: 0.394
3. VIGRMYDYHVL [RPF2_Y109]: 5.17
4. ELTTCYRKKCS [CCBE1_Y70_C75S]: 0.467
5. GFITSYREEEQ: 0.489
6. IGNGYYFHVFS [MYBPC3_Y1136_R1138H]: 0.503

-- ask Dear colleague, I am looking for the recorded phosphorylation enrichment of the following sequence: AIMSFYAALID [RYR1_Y2426]
-- reply 0.74

----------
experimentalSystem: FGFR1 (UniProt P11362)
Sequence (P11362 whole entry, looked up): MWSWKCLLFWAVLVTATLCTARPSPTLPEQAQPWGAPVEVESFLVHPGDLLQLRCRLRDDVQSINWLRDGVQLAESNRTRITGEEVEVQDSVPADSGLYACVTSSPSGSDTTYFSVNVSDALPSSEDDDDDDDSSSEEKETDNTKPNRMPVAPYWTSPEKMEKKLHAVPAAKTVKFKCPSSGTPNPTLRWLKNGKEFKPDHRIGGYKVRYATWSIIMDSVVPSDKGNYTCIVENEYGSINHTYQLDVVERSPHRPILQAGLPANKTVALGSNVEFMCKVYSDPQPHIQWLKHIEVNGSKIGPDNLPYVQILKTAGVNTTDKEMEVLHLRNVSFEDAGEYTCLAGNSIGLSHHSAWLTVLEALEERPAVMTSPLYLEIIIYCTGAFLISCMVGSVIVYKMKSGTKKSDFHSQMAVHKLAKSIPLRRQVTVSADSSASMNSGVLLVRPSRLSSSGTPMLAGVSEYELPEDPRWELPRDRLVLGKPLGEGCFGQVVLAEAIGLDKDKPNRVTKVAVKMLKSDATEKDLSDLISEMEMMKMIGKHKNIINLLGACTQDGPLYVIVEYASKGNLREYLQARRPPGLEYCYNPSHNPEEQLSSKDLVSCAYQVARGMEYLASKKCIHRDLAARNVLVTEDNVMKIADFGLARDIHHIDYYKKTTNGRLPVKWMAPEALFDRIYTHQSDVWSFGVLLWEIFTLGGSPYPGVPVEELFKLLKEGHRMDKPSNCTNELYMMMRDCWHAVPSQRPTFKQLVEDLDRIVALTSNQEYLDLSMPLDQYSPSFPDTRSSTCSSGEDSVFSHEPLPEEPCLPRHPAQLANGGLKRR
procedureDetails: phosphorylation enrichment, bacterial display (enrichment ratio); higher = better substrate or ligand; peptides without Tyr show the background
Each entry below lists one item and its recorded phosphorylation enrichment value.
Lab note: record the figure alone, no unit after it.

Worked set:
1. RRNNSYTCFTA [SLC20A2_Y386_YF]: 0.886
2. MMVGAYSTLEG [ECPAS_Y470]: 0.538
3. FMCKVYSDRQP [FGFR1_Y280_P283R]: 0.494
4. SYCYRYRCAAQ [SUMF1_Y344_R349Q]: 0.499
5. ELCSEYRKSRK [SPINK5_Y440]: 0.429

Now let's try a different one.
-- ask Dear colleague, I am looking for the recorded phosphorylation enrichment of the following sequence: IPPRRYFRSGV [STAMBP_Y36]
-- reply 0.414

----------
Test system: AncSZ
procedureDetails: phosphorylation enrichment, bacterial display (enrichment ratio); higher = better substrate or ligand; peptides without Tyr show the background
measureName: phosphorylation enrichment

Worked set:
1. PVPKTYDMLNA [PKP2_Y108_K112N]: 0.866
2. SKKSTYQALLD [GANC_Y43]: 0.563
3. QSRSPYSSRHS [CDK13_Y415_R410Q]: 0.85
4. VNYGAYINYFK [GLB1_Y488_D491Y]: 0.894
5. SEDSEYFRAFE [CASQ2_Y178_K180R_YF]: 1.99

-- ask Form field: phosphorylation enrichment recorded for EILLSDLRTGF [TGM1_Y365_Y365D_YF] with AncSZ (enter value)
-- reply 0.779

-- ask Form field: phosphorylation enrichment recorded for ARVDTYCRHNY [HLA-DRB1_Y107_A103R] with AncSZ (enter value)
-- reply 0.825

-- ask Form field: phosphorylation enrichment recorded for TSNQEYLDLSM [FGFR1_Y766] with AncSZ (enter value)
-- reply 1.14

-- ask Form field: phosphorylation enrichment recorded for KLLPEYPGILS [DHFR2_Y163_V166I] with AncSZ (enter value)
-- reply 0.772

-- ask Form field: phosphorylation enrichment recorded for FSQQTYYRVSN [ABCD1_Y180] with AncSZ (enter value)
-- reply 0.831

-- ask Form field: phosphorylation enrichment recorded for PVQAAYQKVVD [HBB_Y131_A136D] with AncSZ (enter value)
-- reply 0.831

-- ask Form field: phosphorylation enrichment recorded for VIGRMYDYHVL [RPF2_Y109] with AncSZ (enter value)
-- reply 0.966

----------
experimentalSystem: Fyn (UniProt P06241)
Sequence (P06241 whole entry, looked up): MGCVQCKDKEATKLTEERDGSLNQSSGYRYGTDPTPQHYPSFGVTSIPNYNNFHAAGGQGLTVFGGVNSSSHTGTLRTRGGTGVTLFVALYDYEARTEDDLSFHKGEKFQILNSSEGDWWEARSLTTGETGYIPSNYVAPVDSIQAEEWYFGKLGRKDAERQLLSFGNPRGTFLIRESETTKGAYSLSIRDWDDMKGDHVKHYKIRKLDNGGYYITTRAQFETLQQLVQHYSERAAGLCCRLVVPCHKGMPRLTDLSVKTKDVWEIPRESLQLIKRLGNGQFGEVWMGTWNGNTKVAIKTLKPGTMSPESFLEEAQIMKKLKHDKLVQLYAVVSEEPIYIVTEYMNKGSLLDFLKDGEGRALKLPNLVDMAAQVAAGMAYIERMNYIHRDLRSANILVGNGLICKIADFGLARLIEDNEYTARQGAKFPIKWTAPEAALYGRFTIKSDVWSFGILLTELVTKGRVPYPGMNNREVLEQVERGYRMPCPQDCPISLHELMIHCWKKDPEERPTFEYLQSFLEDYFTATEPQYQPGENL
procedureDetails: phosphorylation enrichment, bacterial display (enrichment ratio); higher = better substrate or ligand; peptides without Tyr show the background
Response key: Condition met means phosphorylation enrichment >= 0.4; Condition not met means phosphorylation enrichment < 0.4.

1) ARAGEYGAEAL [HBA1_Y25_H21R]: Condition met
2) QQLQGYIPSNY [FRK_Y99]: Condition not met
3) EQLLDYTRTVQ [INPP5E_Y439_R435Q]: Condition met
4) SSREGYVRHHN [FAM83B_Y433_S435R]: Condition not met
5) STSKTYVISQT [RBBP6_Y87_R91Q]: Condition met

-- ask Does phosphorylation enrichment meet or surpass 0.4 for VVQGIYGYHHY [UFSP2_Y285] ?
-- reply Condition met

-- ask Does phosphorylation enrichment meet or surpass 0.4 for RLLVVYTWTQR [HBB_Y36_P37T] ?
-- reply Condition met

-- ask Does phosphorylation enrichment meet or surpass 0.4 for SVTCTYPPALN [TP53_Y126_S127P] ?
-- reply Condition met

-- ask Does phosphorylation enrichment meet or surpass 0.4 for VKYLGYPPPEI [KDR_Y357_A352V] ?
-- reply Condition met

----------
experimentalSystem: SHP2-C SH2;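 note: peptide library displayed on the E. coli surface as eCPX fusions, selected cells deep-sequenced, score is each peptide's frequency after selection divided by its frequency in the input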
procedureDetails: SH2 binding enrichment of the phosphorylated peptide, bacterial display (enrichment ratio); higher = better substrate or ligand; peptides without Tyr show the background
Response key: t means SH2 binding enrichment >= 0.8; f means SH2 binding enrichment < 0.8.

Sample answers from the record:
1) MKDLTYASLCF [ALOX5_Y446]: f
2) VIGRMYDYHVL [RPF2_Y109]: t
3) DVQNAYDSNHC [ZFYVE16_Y36]: t

Shift focus to the following entry.
-- ask Does SH2 binding enrichment meet or surpass 0.8 for HHTDECEYDEL [TGM1_Y134_Y134C] ?
-- reply f

----------
System: AncSZ
procedureDetails: phosphorylation enrichment, bacterial display (enrichment ratio); higher = better substrate or ligand; peptides without Tyr show the background
Each entry below lists one item and its recorded phosphorylation enrichment value.

Worked set:
1) MSLPGYKLVTG [GJA1_Y286_P283L]: 0.536
2) LTTPTYGDLNH [TUBB_Y222]: 1.41
3) TLQIMYGCDVG [HLA-A_Y123_I119L]: 1.23
4) DGTIVYTGLET [USH2A_Y4487]: 0.821
5) RRAKGYPINLY [ITGB2_Y125_D128N]: 0.762

-- ask Form field: phosphorylation enrichment recorded for KNKELYSDLFD [PDE10A_Y300] with AncSZ (enter value)
-- reply 1.13

-- ask Form field: phosphorylation enrichment recorded for AVLALHNSTRD [TGFB1_Y81_Y81H] with AncSZ (enter value)
-- reply 0.546

-- ask Form field: phosphorylation enrichment recorded for SIKDKYVMALF [KCNH2_Y611_T613M_YF] with AncSZ (enter value)
-- reply 0.664

-- ask Form field: phosphorylation enrichment recorded for PQGVRYTYTID [DCX_Y103_I104T] with AncSZ (enter value)
-- reply 1.05

-- ask Form field: phosphorylation enrichment recorded for LIFTNYEAGKD [GSTP1_Y112_YF] with AncSZ (enter value)
-- reply 1.21

-- ask Form field: phosphorylation enrichment recorded for KMMGRYEMFAR [UPB1_Y362_T359M_YF] with AncSZ (enter value)
-- reply 0.538

-- ask Form field: phosphorylation enrichment recorded for LSALDYKIFYY [WDPCP_Y210] with AncSZ (enter value)
-- reply 1.18

-- ask Form field: phosphorylation enrichment recorded for KSSDVYVSYDY [SORL1_Y136] with AncSZ (enter value)
-- reply 1.16

-- ask Form field: phosphorylation enrichment recorded for EFAAGYNVKFD [GPX4_Y123] with AncSZ (enter value)
-- reply 0.739
